# ASSAY_TARGET: recombinant MSP (rMSP) (Mesocricetus auratus)
# Sequence (Q9QXU1 16-172): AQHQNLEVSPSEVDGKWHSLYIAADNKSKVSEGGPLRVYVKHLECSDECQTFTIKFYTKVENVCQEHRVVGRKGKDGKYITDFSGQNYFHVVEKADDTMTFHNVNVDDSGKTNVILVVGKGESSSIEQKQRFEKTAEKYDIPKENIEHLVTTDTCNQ
# PROTOCOL_TEXT: Fluorescence ligand binding / competitive displacement of probe 1-AMA from rMSP
MEASURED_ENDPOINT: Kd

CPD_SMILES: Nc1cccc2cc3ccccc3cc12
RESULT: ~1860 nM

* * *

# ASSAY_TARGET: recombinant FLP (rFLP) (Mesocricetus auratus, UniProt Q99MG7)
# Sequence (Q99MG7 17-172): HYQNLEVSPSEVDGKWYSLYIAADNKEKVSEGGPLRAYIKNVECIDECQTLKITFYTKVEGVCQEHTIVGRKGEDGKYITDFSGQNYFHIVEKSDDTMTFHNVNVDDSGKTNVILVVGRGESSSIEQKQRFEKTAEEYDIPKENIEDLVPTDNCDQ
# PROTOCOL_TEXT: Fluorescence ligand binding / competitive displacement of probe 1-NPN from rFLP
pKd: −log10 of the molar value.
MEASURED_ENDPOINT: pKd

CPD_SMILES: c1ccc(Nc2cccc3ccccc23)cc1
RESULT: ~5.86
